# tested_system: CDK4/cyclin D3 (Homo sapiens)
# Construct: purchased Carna Biosciences, Inc. QS S Assist CDK4/Cyclin D3_FP Kit
# Sequence (P11802 whole entry): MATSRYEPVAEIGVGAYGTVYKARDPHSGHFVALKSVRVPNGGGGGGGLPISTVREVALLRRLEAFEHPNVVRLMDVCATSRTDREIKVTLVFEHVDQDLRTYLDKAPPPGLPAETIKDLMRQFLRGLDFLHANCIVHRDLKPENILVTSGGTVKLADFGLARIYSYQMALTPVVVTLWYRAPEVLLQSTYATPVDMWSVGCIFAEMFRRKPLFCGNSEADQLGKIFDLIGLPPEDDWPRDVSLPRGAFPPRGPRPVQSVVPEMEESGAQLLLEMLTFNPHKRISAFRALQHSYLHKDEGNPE
# Sequence (P30281 whole entry partner): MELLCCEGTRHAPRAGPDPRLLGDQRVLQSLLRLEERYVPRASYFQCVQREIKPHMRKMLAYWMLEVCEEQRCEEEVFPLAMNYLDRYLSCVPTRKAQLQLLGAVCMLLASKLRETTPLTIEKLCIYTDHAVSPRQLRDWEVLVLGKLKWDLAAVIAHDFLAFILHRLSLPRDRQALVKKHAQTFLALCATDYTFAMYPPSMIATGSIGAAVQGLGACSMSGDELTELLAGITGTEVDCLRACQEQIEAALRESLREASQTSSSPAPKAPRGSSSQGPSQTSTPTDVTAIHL
# assay_procedure: Human CDK4/cyclin D3 inhibitory activity (QS S Assist CDK4/Cyclin D3_FP Kit, IMAP fluorescence polarization)
# Assay type: biochemical
# condition_info: Human CDK4/cyclin D3 inhibitory activity; read-out: CDK4 Activity symbol
measured_metric: IC50

# compound, tested_system, measured_metric, test_value
rows = [
    ("COC(C)c1cc2cnc(Nc3ccc(CN4CCNCC4)cn3)nc2c(NC[C@H]2CC[C@H](C(=O)O)CC2)n1 (stereo partly shown)", "CDK4/cyclin D3 (Homo sapiens)", "IC50", "10 to 100 nM"),
    ("CCO[C@H](C)c1cc2cnc(Nc3ccc(N4CCNCC4)nn3)nc2c(NC(C)C)n1", "CDK4/cyclin D3 (Homo sapiens)", "IC50", "< 10 nM"),
    ("CNC1(C)CCN(c2ccc(Nc3ncc4cc([C@@H](C)OC)nc(NC(C)C)c4n3)nn2)CC1", "CDK4/cyclin D3 (Homo sapiens)", "IC50", "< 10 nM"),
    ("CC(C)Nc1nc([C@@H](C)O)cc2cnc(Nc3ccc(N4CCCC(N)C4=O)cn3)nc12 (stereo partly shown)", "CDK4/cyclin D3 (Homo sapiens)", "IC50", "< 10 nM"),
    ("CC(O)c1cc2cnc(Nc3ccc(N4CCNCC4)cn3)nc2c(NC2CCOCC2)n1 (stereo not shown)", "CDK4/cyclin D3 (Homo sapiens)", "IC50", "< 10 nM"),
    ("CO[C@H](C)c1cc2cnc(Nc3cnc(N4CCNCC4)cn3)nc2c(NC(C)C)n1", "CDK4/cyclin D3 (Homo sapiens)", "IC50", "< 10 nM"),
    ("CC(C)Nc1nc([C@@H](C)O)cc2cnc(Nc3ccc(SCCN(C)C)cn3)nc12", "CDK4/cyclin D3 (Homo sapiens)", "IC50", "10 to 100 nM"),
    ("CNCC(C)(C)c1ccc(Nc2ncc3cc([C@@H](C)O)nc(NC(C)(C)COC)c3n2)nc1", "CDK4/cyclin D3 (Homo sapiens)", "IC50", "< 10 nM"),
    ("COCC(C)(C)Nc1nc([C@@H](C)O)cc2cnc(Nc3ccc(N4CCNCC4)cn3)nc12", "CDK4/cyclin D3 (Homo sapiens)", "IC50", "< 10 nM"),
    ("CC(C)Nc1nc([C@@H](C)O)cc2cnc(Nc3ccc(N4CCN(C)CC4)nn3)nc12", "CDK4/cyclin D3 (Homo sapiens)", "IC50", "< 10 nM"),
    ("C[C@@H](O)c1cc2cnc(Nc3ccc(C4CCNCC4)nn3)nc2c(NC2CCOCC2)n1", "CDK4/cyclin D3 (Homo sapiens)", "IC50", "< 10 nM"),
    ("CO[C@H](C)c1cc2cnc(Nc3ccc(CN4CCC(F)CC4)cn3)nc2c(NC(C)C)n1", "CDK4/cyclin D3 (Homo sapiens)", "IC50", "10 to 100 nM"),
    ("CC(C)Nc1nc(C(F)F)cc2cnc(Nc3ccc(CN4CCC(N(C)C)CC4)cn3)nc12", "CDK4/cyclin D3 (Homo sapiens)", "IC50", "< 10 nM"),
    ("COCC(C)(C)Nc1nc([C@@H](C)O)cc2cnc(Nc3ccc(CN4CCNCC4)cn3)nc12", "CDK4/cyclin D3 (Homo sapiens)", "IC50", "< 10 nM"),
    ("CN(C)CCOc1ccc(Nc2ncc3cc(C(F)F)nc(N[C@H]4CC[C@H](O)CC4)c3n2)nc1", "CDK4/cyclin D3 (Homo sapiens)", "IC50", "< 10 nM"),
    ("CC(C)Nc1nc([C@@H](C)O)cc2cnc(Nc3ccc(N4CC5(CC(N(C)C)C5)C4)nn3)nc12", "CDK4/cyclin D3 (Homo sapiens)", "IC50", "< 10 nM"),
    ("CO[C@H](C)c1cc2cnc(Nc3ccc(N4CCCNCC4=O)cn3)nc2c(NC(C)C)n1", "CDK4/cyclin D3 (Homo sapiens)", "IC50", "< 10 nM"),
    ("C[C@@H](O)c1cc2cnc(Nc3ccc(N4CCNCC4)nn3)nc2c(N[C@@H]2CCCOC2)n1", "CDK4/cyclin D3 (Homo sapiens)", "IC50", "< 10 nM"),
    ("CO[C@H](C)c1cc2cnc(Nc3ccc(N4CCC(C)(N)CC4)nn3)nc2c(NC(C)C)n1", "CDK4/cyclin D3 (Homo sapiens)", "IC50", "< 10 nM"),
    ("CC(C)Nc1nc(C(F)F)cc2cnc(Nc3ccc(-n4cccn4)cn3)nc12", "CDK4/cyclin D3 (Homo sapiens)", "IC50", "10 to 100 nM"),
    ("CNC(=O)C1CCN(Cc2ccc(Nc3ncc4cc([C@@H](C)O)nc(NC(C)(C)COC)c4n3)nc2)CC1", "CDK4/cyclin D3 (Homo sapiens)", "IC50", "< 10 nM"),
    ("CC(C)Nc1nc(C(F)F)cc2cnc(Nc3ccc(CN(CC4CCOCC4)S(C)(=O)=O)cn3)nc12", "CDK4/cyclin D3 (Homo sapiens)", "IC50", "10 to 100 nM"),
    ("CC(O)c1cc2cnc(Nc3ccc(N4CCNCC4)cn3)nc2c(Nc2cn[nH]c2)n1 (stereo not shown)", "CDK4/cyclin D3 (Homo sapiens)", "IC50", "< 10 nM"),
    ("CC(C)Nc1nc(C(F)F)cc2cnc(Nc3ccc(CN4CCC(CO)CC4)cn3)nc12", "CDK4/cyclin D3 (Homo sapiens)", "IC50", "< 10 nM"),
    ("FC(F)c1cc2cnc(Nc3ccc(N4CCNCC4)cn3)nc2c(NC2CCOCC2)n1", "CDK4/cyclin D3 (Homo sapiens)", "IC50", "< 10 nM"),
    ("CC(C)Nc1nc(C(F)F)cc2cnc(Nc3ccc(CN4CCNC4=O)cn3)nc12", "CDK4/cyclin D3 (Homo sapiens)", "IC50", "< 10 nM"),
    ("CO[C@H](C)c1cc2cnc(Nc3ccc(N4CCC(F)CC4)cn3)nc2c(NC(C)C)n1", "CDK4/cyclin D3 (Homo sapiens)", "IC50", "10 to 100 nM"),
    ("CO[C@H](C)c1cc2cnc(Nc3ccc(CN4CCNCC4)cn3)nc2c(N[C@@H]2CCOC2)n1", "CDK4/cyclin D3 (Homo sapiens)", "IC50", "< 10 nM"),
    ("CC(C)Nc1nc(C(F)F)cc2cnc(Nc3ccc(CCCN4CCCCS4(=O)=O)cn3)nc12", "CDK4/cyclin D3 (Homo sapiens)", "IC50", "< 10 nM"),
    ("CC(O)c1cc2cnc(Nc3ccc(N4CCNCC4)cn3)nc2c(NC(C)c2cn[nH]c2)n1 (stereo not shown)", "CDK4/cyclin D3 (Homo sapiens)", "IC50", "< 10 nM"),
    ("C[C@@H](O)c1cc2cnc(Nc3ccc(N4CCNCC4=O)cn3)nc2c(N[C@H]2CC[C@H](C)CC2)n1", "CDK4/cyclin D3 (Homo sapiens)", "IC50", "< 10 nM"),
]
